Ref: ChEMBL document CHEMBL1201862

Tested on: UACC-62
Assay Notes: NCI tumour cell line growth inhibition, 48 h
Activity calls are given as the source filed them. No stated cut-off is given here; in the data, active = GI50 up to about 1.1 µM and inactive = higher.
Parameter: GI50

[
  {
    "Compound": "C=[N+](CNC(=O)CNC(=O)C(Cc1ccc([N+](=O)[O-])cc1)NC(=O)OC(C)(C)C)C(=O)CNC(=O)C(Cc1ccc([N+](=O)[O-])cc1)NC(=O)OC(C)(C)C (stereo not given)",
    "Test Target": "UACC-62",
    "Reading": "21.6 µM (inactive)"
  }
]

Problem: Sample O=C(O)C1C2c3ccccc3C(c3ccccc32)C1C(=O)NCC1CC1 (stereo not given) — what was its GI50?
Result: 38.5 µM (inactive)

Problem: GET /values?readout=GI50&item= c1ccc(C2=NOC3C4CCC(C4)C23)cc1 (stereo not given)
Result: > 100 µM (inactive)
